Recorded values, source PubChem BioAssay AID1159580.

- assayOverview: chemical genetic growth profiling, strain panel (AID 1159580);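 further: tested at 20 µM; growth read once vehicle control cultures reached saturation at 30 °C; 1 = growth at the plate median or of vehicle wells; lower values mean less growth of the strain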
- statedConditions: S. cerevisiae deletion strains, growth OD, locus YDL028C, strain MPS1, hits give low values
Hit rate of the full screen: of about 5,500 compounds, about 2,000 (36%) were called active. About 18% were inconclusive and are not listed. The list shows a part of the results.
readoutKind: normalized growth
Numbers only.

Query :: Query (compound): CC(=O)CSc1nnc(-c2ccc(C(C)(C)C)cc2)n1-c1ccc(Cl)cc1 ; field requested: normalized growth
Result :: 0.976

Query :: Suppose we examine the compound Cc1cc(C(=O)NNc2ccc(F)cc2F)no1 ; what normalized growth value has been reported?
Result :: 0.977

Query :: Could you tell me which normalized growth is on file for O=S(=O)(Nc1cccc2nsnc12)c1cc(Cl)sc1Cl ?
Result :: 0.961

Look up normalized growth for the entries below, preserving their order.
1. Cc1ccc(OCC2SCCN2C(=O)c2ccc(C(F)(F)F)cc2)c([N+](=O)[O-])c1 (stereo not given)
2. N#CC(C#N)=C(SCc1c(Cl)cccc1Cl)SCc1c(Cl)cccc1Cl
3. COc1ccc(CN2CSC(=S)N(Cc3ccc(OC)cc3)C2)cc1
4. O=S(=O)(Nc1cccc(CCc2ccccn2)c1)c1cc(Cl)c(Cl)cc1Cl
5. Cc1nnsc1C(=O)Nc1cc(C(F)(F)F)cc(C(F)(F)F)c1

Result ::
1. 1.02
2. 0.993
3. 0.951
4. 0.987
5. 0.959
